# System: Bone marrow cell
# procedureSummary: Inhibition of osteoclastogenesis in CD1 mouse bone marrow cells at 0.1 to 10 ug/ml added on day 2 and day 4 measured on day 7 by TRAP assay
# Type: functional, cell-based
Activity calls are given as the source filed them. No cut-off for these calls is given here.
Classes to choose from: active, inactive

Example results:
>>> df
                compoundsmiles     label
0        CCCCCOCCCCCCCCCC(=O)O  inactive
1        CCCCCCCCCCOCCCCC(=O)O    active
2        CCCCCCOCCCCCCCCC(=O)O  inactive
3        CCCCCCCCCCCCOCCC(=O)O    active
4  CCCCCCCCCCn1cc(CCC(=O)O)nn1    active
5        CCCOCCCCCCCCCCCC(=O)O    active

Exercise: Check the results log: what was the call for CCCCCCCn1cc(CCCCCC(=O)O)nn1 ?
Key: active

Exercise: Now the same for CCn1cc(CCCCCCCCCCC(=O)O)nn1
Key: active

Exercise: Now the same for CCCCCCCCCOCCCCCC(=O)O
Key: inactive

Exercise: Now the same for CCCCCCCCCn1cc(CCCC(=O)O)nn1
Key: active

Exercise: Now the same for CCCCCCCCCCCCCCCC(=O)O
Key: active

Exercise: Now the same for O=C(O)CCc1ccc(NCc2cccc(Oc3ccccc3)c2)cc1
Key: active
